Every entry's value here was drawn from patent US20180208675A1.

Overview of recorded pKd for various binders
molecular target: T1, human TFPI alpha (full-length TFPIα) (human, UniProt P10646 29-304); experiment: SPR (Biacore T200), Fab captured on Human Fab Binder, TFPIα in solution, 1:1 fit
T1 construct: Analyte in SPR and added to plasma (2 or 20 nM) in thrombin generation assays; also called human TFPIα
Lab note — pKd values are minus log10 of concentrations in M.

Known pKd results, listed for orientation:
INSERT INTO assay_data (binder, readout_number) VALUES
  ('Fab 0094 (Fab fragment of mAb 2007) (Fab, V domains shown, KPI-2 specific) VH: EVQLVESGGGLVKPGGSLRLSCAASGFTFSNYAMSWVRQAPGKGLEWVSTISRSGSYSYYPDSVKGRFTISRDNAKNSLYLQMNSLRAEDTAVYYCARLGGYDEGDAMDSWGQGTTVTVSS VL: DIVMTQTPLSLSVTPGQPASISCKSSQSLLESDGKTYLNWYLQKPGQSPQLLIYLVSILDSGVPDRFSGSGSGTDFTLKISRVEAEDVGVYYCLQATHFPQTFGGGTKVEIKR', 8.36),
  ('Fab 0095 (Fab fragment of mAb 2014) (Fab, V domains shown, KPI-2 specific) VH: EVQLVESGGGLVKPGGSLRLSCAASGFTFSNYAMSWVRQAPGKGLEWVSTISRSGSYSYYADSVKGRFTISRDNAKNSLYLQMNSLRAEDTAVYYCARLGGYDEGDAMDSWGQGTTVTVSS VL: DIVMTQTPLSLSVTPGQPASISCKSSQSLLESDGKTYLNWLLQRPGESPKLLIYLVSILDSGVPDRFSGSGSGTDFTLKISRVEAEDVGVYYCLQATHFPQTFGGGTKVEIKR', 9.11),
  ('Fab 0313 (Fab fragment of mAb 2000) (Fab, V domains shown, Fab of the initial grafted HzTFPI4F36; KPI-2 specific) VH: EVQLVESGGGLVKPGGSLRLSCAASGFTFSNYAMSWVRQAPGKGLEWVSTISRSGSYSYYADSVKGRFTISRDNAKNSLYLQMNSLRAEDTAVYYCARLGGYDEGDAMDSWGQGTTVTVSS VL: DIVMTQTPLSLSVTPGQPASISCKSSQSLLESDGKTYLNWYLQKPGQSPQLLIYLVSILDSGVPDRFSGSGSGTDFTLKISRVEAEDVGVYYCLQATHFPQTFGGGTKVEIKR', 7.38);

The measured pKd associated with Fab 0088 (Fab fragment of mAb 2021) (Fab, V domains shown, free C-terminal cysteine; KPI-2 specific) VH: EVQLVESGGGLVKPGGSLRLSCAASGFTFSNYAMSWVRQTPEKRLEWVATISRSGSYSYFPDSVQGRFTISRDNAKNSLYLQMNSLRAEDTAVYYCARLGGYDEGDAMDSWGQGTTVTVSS VL: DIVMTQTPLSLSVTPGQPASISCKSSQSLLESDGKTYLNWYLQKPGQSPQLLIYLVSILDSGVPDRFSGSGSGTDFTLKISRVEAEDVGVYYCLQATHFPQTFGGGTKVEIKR reads 10.22

The measured pKd associated with Fab 0089 (Fab fragment of mAb 4F110) (Fab, V domains shown, Chimeric mouse/human Fab; HC truncated after the hinge cysteine; KPI-3 specific) VH: QVQLQQSGAELVKPGASVKLSCKASGYTFISYYMYWVKQRPGQGLEWIGEINPSNGDTNLNEKFKSKATLTVDKSSSTVYMQLSSLTSEDSAVYYCTRWDRFDGFVYWGQGTLVTVSA VL: ETTVTQSPASLSMAIGGKVTIRCIISTNIDDDINWYQQKPGEPPKLLISEGNTLRPGVPSRFSSSGYGTDFVFTIENMLSEDVADYYCLQSDDLPYTFGGGTKLEIKR reads 9.96
